A collection of binders and their measured Activity against human GLP-1R (EC50 nM)
Biological target: human glucagon-like peptide-1 receptor (human, UniProt P43220 24-463)
Assay: cell-based or functional assay
Starred links: 1 amine or outer side, 2 acyl side, 3 side chain; linkers in the order of their positions; H or OH if unused. Non-standard residues stand in square brackets, D forms with d. Groups on a side chain read outwards from the residue. No end group written: not given here. *: point of attachment. C20 diacid = O=C(O)CCCCCCCCCCCCCCCCCCC(=O)*; γGlu = O=C(O)[C@H](CCC(=O)[*:2])N[*:1]; αMeK = C[C@](N)(CCCCN)C(=O)O; Iva = CC[C@](C)(N)C(=O)O; AEEA = NCCOCCOCC(=O)O; Aib = CC(C)(N)C(=O)O

INSERT INTO results (binder, quantity_measured, result) VALUES
  ('H[Aib]HGTFTSDYS[αMeK]ILEK([AEEA-AEEA-γGlu-C20 diacid])QAA[Iva]EFVEWLLAGGPSSGAPPPS-NH2 [Compound No. 0130]', 'Activity against human GLP-1R (EC50 nM)', '0.048 nM'),
  ('Y[Aib]QGTFTSDYS[αMeK]LLEK([AEEA-AEEA-γGlu-C20 diacid])KAA[Iva]EFVEWLLAGGPSSGAPPPS-NH2 [Compound No. 0127]', 'Activity against human GLP-1R (EC50 nM)', '0.132 nM'),
  ('Y[Aib]QGTFTSDYS[αMeK]ILEK([AEEA-AEEA-γGlu-C20 diacid])KAA[Iva]EFVEWLLAGGPSSGAPPPS-NH2 [Compound No. 0129]', 'Activity against human GLP-1R (EC50 nM)', '0.159 nM');

From here, focus on the item given below.
In plain terms, H[Aib]HGTFTSDYS[αMeK]LLEK([AEEA-AEEA-γGlu-C20 diacid])QAA[Iva]EFVEWLLAGGPSSGAPPPS-NH2 [Compound No. 0128] has a documented Activity against human GLP-1R (EC50 nM) of 0.04 nM
